assay: yeast display, Sf9 membrane polyspecificity reagent, FACS + sequencing; frameworks hold sequencing errors
Observation Type: polyreactivity (PSR sort gate)

| Sequence Data | Readout Value |
| --- | --- |
| QVQLVESGGGLVQAGGSLRLSCAASGRIFPFYAMGWYRPATWIQRELVAAITSSGGRTYYADSVKGRFTISRDIAKNTVYLQMNSLKPEETAVYYCAAGHGCYYRYFSQRDYWGQGTQVTVSS | low polyreactivity |
| QVQLVESGGGLVQAGGSLRLSCAASGLTVNRYALGWYRQAPGKERELVASIRWSGGSTYYADSVKGRFTISRDNAKNTVYLQMNSLKPEDTAVYYCAKSIASAAYDSWGQGTQVTVSS | low polyreactivity |
| QVQLVESGGGLVQAGGSLRLSCAASGSTFNRNTMGWYRQAPGKERELVAAITSSGGRTYYADSVKGRFTISRDNAKNTVYLQVNSLKPEDTAVYYCANVIRVLIAGRFDSWGQGTHVTVSS | high polyreactivity |
| QVQLVESGGGLVQAGGSLRLSCAASGSTFFFNEMGWYRQAPGKEREVVAAITGRSGSTYYADSVKGRFTISRDNANNTDYLQMNSLKPEDNAVYYCAGDYSPWRSDFDYWGQGTQVTVSS | low polyreactivity |
| QVQLVESGGGLVQAGGSLRLSCAASGRIFRSNTMGWYRQAPGKERELVAAITRRGGSTYYADSVKGRFTISRDNAKNTVYLQLNSLKPEDTAVYYCAAVKSYYSEYGYWGQGTQGTVSS | high polyreactivity |
| QVQLVESGGGLVQAGGSLRLSCAASGRIFSGNGMGWYRQATGKERELVASITWSGTSTYYADSVKGGFTISRDNAKNTVYLQMNSLKPEDTAVYYCNTRTSRRIWYSKSGKRYDYWGQGTQVTVSS | high polyreactivity |
| QVQLVESGGGLVQAGGSLRLSCAASGYTLYPNAMGRYRQAPGKERELVAAISSGSSTYADSLKGRFTISRDNAKNTVYLQMNSLKPVDTAVYYCNADARIHYDYWGQGTQVTVSS | low polyreactivity |
| QVQLVESGGGLVQAGGSLRLSCAASGFTFRWYTMGWYRPAPGKERELVAAISWSGTSTYYADSVKGRFTISRDNAKNTVYLQMNSLKPEDTAVYYCAAADFYYTGADDYWGQGTQVTVSS | high polyreactivity |
| QVQLGESGGGLVQAGGSLRLSCAASGSTFAKYAMGWYRQAPGKERELVAAISSSGTCTYYADSVKGRFTISRDNAKNTVYLQMNSRKPEDTAVYYCAASYRNRYIAFYYWGQGTQVTVSS | low polyreactivity |
| QVQLVESGGGLVQAGGSLRLSCAASGRTFGSYVMGWYRQAPGKERELVAAITTSGGRTYYADSVKGRFTISRDNAKNTVYLQMNSLKPEDTAVYYCAAVQLTPTTLYRYYSWGQGTQVTVSS | high polyreactivity |

# ---- query sequence ----
Sample QVQLVESGGGLVQAGGSLRLSCAASGRTFSSYAMGGYRKAPGKERELVAAISKRGVRTSYADSVKGRFTISRDNAKNTVYLQMNRLKPEDTAVYYCNATLGRTTAVFKYYWGQGTQVTVSS ; polyreactivity (PSR sort gate) observed: high polyreactivity
